Origin of measurements: PubChem BioAssay (NCI)

experiment: NCI Yeast Anticancer Drug Screen. Data for the wt2 strain (AID 169);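 further: 0% = growth of vehicle-treated yeast cultures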; conditions: S. cerevisiae wt2 strain growth inhibition; at 100.0 µM
The panel holds about 79,000 compounds, 15% with a hit somewhere; the sample as a whole holds those more often. Calls of active or inactive are those of the source. No stated cut-off is given here; in the data, active means growth inhibition above about 70%; inactive means the rest.
Give one outcome, nothing more. List: YES (active), NO (inactive)

compound: COc1ccc2oc(-c3ccc(Cl)cc3)c(N3CCN(C)CC3)c2c1
class label: YES

-- ask Per the assay record, what outcome was assigned to `CC(=O)Oc1ccc(C(=O)c2ccccc2)c(O)c1` ?
-- reply YES

-- ask Test call, this compound: `CN[C@@H]1C[C@H]2O[C@@](C)([C@@H]1OC)n1c3ccccc3c3c4c(c5c6ccccc6n2c5c31)C(=O)N[C@@H]4O`
-- reply NO

---

Answer each item with its documented growth inhibition.
experiment: NCI Yeast Anticancer Drug Screen. Data for the wt1 strain (AID 149);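 further: 0% = growth of vehicle-treated wt1 cultures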; details: S. cerevisiae wt1 strain (SPY 50644) growth inhibition; at 100.0 µM; active compounds read high
About 79,000 compounds went through this panel and 15% of them were active in at least one assay; those are over-represented in the sample as a whole.
Answers are plain numbers, in %.

Would you please look over these solved cases?
molecule: Cc1cccc2c1N=C(C(F)(F)F)CC2=O
numeric readout: 31

molecule: COCCCN(Cc1cc(OC)c(OC)c(OC)c1)C(=S)Nc1cccc(Cl)c1
numeric readout: 24

molecule: CC(=O)Oc1ccc(C(=O)c2ccccc2)c(O)c1
numeric readout: 96

# batch: return growth inhibition for each of the 2 molecules below
1. CN(NC(=O)/C(=C/c1ccc(O)cc1)NC(=O)c1ccccc1)c1ccnc2cc(Cl)ccc12
2. CN(N=O)C(=O)N[C@@H](C=O)[C@@H](O)[C@H](O)[C@H](O)CO

-- reply
69
20

Batch of 2 molecules: report growth inhibition for each.
1. CC1=CCCC2C1(C)CCC(C)C2(C)Cc1cc(O)ccc1O (configuration not stated)
2. COc1cc(CNc2ccc(C(C)C)cc2)cc(OC)c1OC

-- reply
96
56

---

assay: NCI Yeast Anticancer Drug Screen. Data for the mec2-1 strain (AID 157); conditions: S. cerevisiae mec2-1 strain, at 5.0 µM (retest, dose inferred, filed as 0.5), active compounds read high
Compounds without any hit were thinned out: in the full panel of roughly 79,000, 15% have a hit.
readout: growth inhibition (%)
One number for each entry, in %.

For orientation, consider the following solved cases.
compound: C=Cc1cnc([N+](=O)[O-])n1C
numeric readout: 0

compound: CC(=O)[C@]1(O)Cc2c(O)c3c(c(O)c2[C@@H](OC2CC(N)C(O)C(C)O2)C1)C(=O)c1c(OCc2ccccc2)cccc1C3=O (stereo partly specified)
numeric readout: -9

compound: COc1ccc(N2C(=O)CC(Cl)C2=O)cc1 (stereo unspecified)
numeric readout: -44

For the 3 compounds below, give their growth inhibition values.
1. Cc1cc(O)c2c(c1O)C(=O)C13C(=C2O)C(=O)C2C(O)C1C1C(O)C3C(=O)C3=C(O)c4c(O)cc(C)c(O)c4C(=O)C321 (stereo unspecified)
2. COC(=O)/C=C1/OC(c2ccc(Br)cc2)=C(Br)C1=O
3. CCC(=O)Oc1ccc(/C=N/NC(N)=S)nc1

-- reply
1: 75; 2: 18; 3: 0

---

assay: NCI Yeast Anticancer Drug Screen. Data for the mlh1 strain (AID 171);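 further: 0% = growth of vehicle-treated control cultures of the same strain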; conditions: S. cerevisiae mlh1 strain growth inhibition; at 100.0 µM
This is part of a sample that, as a whole, favours compounds with a hit. Of some 79,000 tested, about 15% had one in any assay. Active and inactive are the calls of the source. Rule as the data show it: active = growth inhibition above about 70%; inactive = the rest.
Lab note: assign the record to one of active, inactive

compound: CCOC(=O)C1=C(C)NC(C)=C(C(=O)OCC)C1c1ccccc1Cl
class label: active
//
compound: CC(=O)O[C@H]1C(=O)[C@@]2(C)[C@H]([C@H](OC(=O)c3ccccc3)[C@]3(O)C[C@H](OC(=O)[C@H](O)[C@@H](NC(=O)c4ccccc4)c4ccccc4)C(C)=C1C3(C)C)[C@]1(OC(C)=O)CO[C@@H]1C[C@@H]2O
class label: inactive
//
compound: O=C(O)c1[nH]c(=O)c2ccccc2c1Nc1ccccc1
class label: inactive
//
compound: COCCCN(Cc1cc(OC)c(OC)c(OC)c1)C(=S)Nc1cccc(Cl)c1
class label: inactive
//
compound: COc1cc2c(cc1C[N+](C)(C)CSc1ccccc1)-c1ccccc1CC2
class label: active
//
compound: CC1OC(OC2CCCc3c(O)c4c(c(O)c32)C(=O)c2ccccc2C4=O)CC(N)C1O (stereo not drawn)
class label: active
//
compound: O=C1C=CC(=O)N1c1ccc(N2C(=O)C=CC2=O)cc1
class label: active

Read the next record carefully.
-- ask Status in this test for `Cc1ccc2occ/c(=N\Nc3ccccc3)c2c1` ?
-- reply inactive
